measured.target: T1, biotin-labeled mouse ADM (mouse, not fully specified; biotin label (named mouse ADM-C-biotin in Example 1.4; position of the biotin not stated for the other lots))
T1 construct: Synthetic peptide; also called mouse ADM-C-biotin; mADM-Biotin
T1 peptide: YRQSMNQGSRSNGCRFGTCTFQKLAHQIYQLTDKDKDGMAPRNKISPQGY
experimental.details: flow staining of yeast-displayed Fab at graded antigen concentrations
Description: For the first round of screening products of JYYDL227, 46 monoclones were picked for sequencing, and finally, a yeast monoclonal colony with a unique sequence was obtained for EC₅₀ identification by flow staining. […]
pEC50: −log10 of the molar value.
Param threshold (8) applies to pEC50; output Criterion met when value >= threshold, Criterion not met when value < threshold.

{"columns": ["binder", "label"],
 "data": [
  ["Ab2004.Am01 (Fab displayed on yeast) (Fab, V domains shown) VH: QVQLVQSGAEVKKPGASVKVSCKASGYTFTSYGISWVRQAPGQGLEWMGWISAYQGNTNYAQKLQGRVTMTRDTSTSTAYMELRSLRSDDTAVYYCAREGRWGGSFNIWGQGTMVTVSS VL: DIQMTQSPSSLSASVGDRVTITCRASQGISSYLAWYQQKPGKAPKLLIYDASNLETGVPSRFSGSGSGTDFTFTISSLQPEDIATYYCQQYDNLPLTFGGGTKVEIK", "Criterion not met"],
  ["Ab2004.Am34 (Fab displayed on yeast) (Fab, V domains shown, Yeast monoclonal colony of library JYYDL227 (Fab display)) VH: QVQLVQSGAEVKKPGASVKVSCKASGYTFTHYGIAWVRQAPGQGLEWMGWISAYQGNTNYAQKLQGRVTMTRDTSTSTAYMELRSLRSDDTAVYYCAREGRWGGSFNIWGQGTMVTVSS VL: DIQMTQSPSSLSASVGDRVTITCRASQGISSYLAWYQQKPGKAPKLLIYDVSILDAGVPSRFSGSGSGTDFTFTISSLQPEDIATYYCQQYDNLPLTFGGGTKVEIK", "Criterion met"],
  ["Ab2004.Am40 (Fab displayed on yeast) (Fab, V domains shown, Yeast monoclonal colony of library JYYDL227 (Fab display)) VH: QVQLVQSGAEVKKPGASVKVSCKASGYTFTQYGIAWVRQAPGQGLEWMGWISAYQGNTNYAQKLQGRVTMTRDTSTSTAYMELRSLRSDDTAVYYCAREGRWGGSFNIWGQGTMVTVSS VL: DIQMTQSPSSLSASVGDRVTITCRASQGISSYLAWYQQKPGKAPKLLIYDASNLETGVPSRFSGSGSGTDFTFTISSLQPEDIATYYCQQYDDLPLSFGGGTKVEIK", "Criterion met"],
  ["Ab2004.Am36 (Fab displayed on yeast) (Fab, V domains shown, Yeast monoclonal colony of library JYYDL227 (Fab display)) VH: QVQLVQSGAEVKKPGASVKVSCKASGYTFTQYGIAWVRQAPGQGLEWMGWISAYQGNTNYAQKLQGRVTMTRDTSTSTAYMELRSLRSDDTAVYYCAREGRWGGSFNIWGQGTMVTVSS VL: DIQMTQSPSSLSASVGDRVTITCRASQGISSYLAWYQQKPGKAPKLLIYDASNVDTGVPSRFSGSGSGTDFTFTISSLQPEDIATYYCQQYDNLPLTFGGGTKVEIK", "Criterion met"]
]}
